MEASUREMENT TARGET: human MCH-1R (human, UniProt Q99705 1-353)
Sequence (Q99705 whole entry, form in doubt): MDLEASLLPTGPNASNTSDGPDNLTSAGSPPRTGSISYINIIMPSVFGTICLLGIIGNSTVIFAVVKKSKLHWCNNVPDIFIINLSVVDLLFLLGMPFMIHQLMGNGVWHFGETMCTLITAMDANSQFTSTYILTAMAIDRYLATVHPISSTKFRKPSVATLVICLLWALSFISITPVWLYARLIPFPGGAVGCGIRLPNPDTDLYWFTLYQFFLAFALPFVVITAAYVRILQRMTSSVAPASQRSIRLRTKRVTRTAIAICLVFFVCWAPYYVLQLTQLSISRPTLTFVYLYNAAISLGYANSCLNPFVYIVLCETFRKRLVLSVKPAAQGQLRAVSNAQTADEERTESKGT
EXPERIMENTAL PROTOCOL: cell-based or functional assay
Bridges are numbered along the chain shown (N, C = ends). [ ]: non-standard residue; d: D form. The star is where a group is joined. Pentanoyl(5-guanidino) = NC(N)=NCCCCC(=O)*; hArg = N=C(N)NCCCC[C@H](N)C(=O)O; dCha = N[C@H](CC1CCCCC1)C(=O)O; Aib = CC(C)(N)C(=O)O; GABA = NCCCC(=O)O; βAla = NCCC(=O)O
// Activation % at 10 µM (aequorin functional assay) lookup, one value per entry
Note: unit % is implicit; provide only the numeric part.

Here's what some known entries look like.
| BINDER | DATA VALUE |
| --- | --- |
| RCMLXRVYRPC (Sar^10 (sarcosine)) [SEQ. ID. NO. 6] | 95 |
| RCMLXRVYRPC (D-Leu^10) [SEQ. ID. NO. 14] | 23 |
| Ac-RCML[dA][hArg]VYRPC-NH2 (disulfide 2-11 (inferred), also called D-Ala^10, Harg^11) [SEQ. ID. NO. 36] | 0.1 |
| Ac-RCML[GABA]RVYRPC-NH2 (disulfide 2-11 (inferred), also called εAbu^10) [SEQ. ID. NO. 21] | 101 |
| RCMLXRVYRPC (Phg^10 (phenylglycine), also called Phg^10) [SEQ. ID. NO. 12] | 0.1 |
| Ac-RCML[dF]RVYRPC-NH2 (disulfide 2-11 (inferred), also called D-Phe^10) [SEQ. ID. NO. 17] | 5 |
| RCMLGRVYRPX (D-Cys^16, also called D-Cys^16) [SEQ. ID. NO. 33] | 76 |
| Ac-RCML[Aib]RVYRPC-NH2 (disulfide 2-11; SMILES CSCC[C@@H]1NC(=O)[C@@H](NC(=O)[C@H](CCCNC(=N)N)NC(C)=O)CSSC[C@@H](C(N)=O)NC(=O)[C@@H]2CCCN2C(=O)[C@H](CCCNC(=N)N)NC(=O)[C@H](Cc2ccc(O)cc2)NC(=O)[C@H](C(C)C)NC(=O)[C@H](CCCNC(=N)N)NC(=O)C(C)(C)NC(=O)[C@H](CC(C)C)NC1=O, also called Aib^10) [SEQ. ID. NO. 11] | 22 |

Return reported Activation % at 10 µM (aequorin functional assay); argument: Ac-RCML[dA]RVYRPC-NH2 (disulfide 2-11; SMILES CSCC[C@@H]1NC(=O)[C@@H](NC(=O)[C@H](CCCNC(=N)N)NC(C)=O)CSSC[C@@H](C(N)=O)NC(=O)[C@@H]2CCCN2C(=O)[C@H](CCCNC(=N)N)NC(=O)[C@H](Cc2ccc(O)cc2)NC(=O)[C@H](C(C)C)NC(=O)[C@H](CCCNC(=N)N)NC(=O)[C@@H](C)NC(=O)[C@H](CC(C)C)NC1=O, also called D-Ala^10) [SEQ. ID. NO. 13] 40

Return reported Activation % at 10 µM (aequorin functional assay); argument: Ac-RCML[βAla]RVYRPC-NH2 (disulfide 2-11 (inferred)) [SEQ. ID. NO. 20] 3.2

Return reported Activation % at 10 µM (aequorin functional assay); argument: RCXLGRVYRPC (Nle^8 (norleucine), also called Nle^8) [SEQ. ID. NO. 5] 105

Return reported Activation % at 10 µM (aequorin functional assay); argument: RCMLLRVYRPC (also called Leu^10) [SEQ. ID. NO. 8] 106

Return reported Activation % at 10 µM (aequorin functional assay); argument: Ac-RCMLGRVYRPC-NH2 (disulfide 2-11 (inferred), positions numbered 6-16 as in hMCH) [truncated form of human MCH, SEQ. ID. NO. 2] 99

Return reported Activation % at 10 µM (aequorin functional assay); argument: Ac-RCML[dCha]RVYRPC-NH2 (disulfide 2-11 (inferred), also called D-Cha^10) [SEQ. ID. NO. 16] 0.1

Return reported Activation % at 10 µM (aequorin functional assay); argument: Ac-RCML[dN]RVYRPC-NH2 (disulfide 2-11 (inferred), also called D-Asn^10) [SEQ. ID. NO. 18] 39

Return reported Activation % at 10 µM (aequorin functional assay); argument: RCMLXRVYRPC (D-Nle^10, also called D-Nle^10) [SEQ. ID. NO. 15] 33

Return reported Activation % at 10 µM (aequorin functional assay); argument: RCALXXVYRPC (D-Ala^10, Harg^11 (homoarginine), also called Ala^8, D-Ala^10, Harg^11) [SEQ. ID. NO. 38] 20

Return reported Activation % at 10 µM (aequorin functional assay); argument: [Pentanoyl(5-guanidino)]CML[dA]RVYRPC-NH2 (disulfide 2-11 (inferred); not fully specified, also called (?-NH2)-Arg^6, D-Ala^10) [SEQ. ID. NO. 34] 4

Return reported Activation % at 10 µM (aequorin functional assay); argument: RCMLGRVXRPC ((2)Nal^13 ((2')naphthylalanine)) [SEQ. ID. NO. 28] 105

Return reported Activation % at 10 µM (aequorin functional assay); argument: Ac-RCALGRVYRPC-NH2 (disulfide 2-11; SMILES CC(=O)N[C@@H](CCCNC(=N)N)C(=O)N[C@H]1CSSC[C@@H](C(N)=O)NC(=O)[C@@H]2CCCN2C(=O)[C@H](CCCNC(=N)N)NC(=O)[C@H](Cc2ccc(O)cc2)NC(=O)[C@H](C(C)C)NC(=O)[C@H](CCCNC(=N)N)NC(=O)CNC(=O)[C@H](CC(C)C)NC(=O)[C@H](C)NC1=O, also called Ala^8) [SEQ. ID. NO. 4] 42

Return reported Activation % at 10 µM (aequorin functional assay); argument: RCMLGXVYRPC (Harg^11 (homoarginine), also called Harg^11) [SEQ. ID. NO. 24] 72
